Parameter: pKd. Scope: all listed entries.
target: TAR RNA; assay: Fluorescence anisotropy: RhdRev binding and AAC competition for TAR RNA; conditions: competition of AACs with RhdRev (10 nM) for TAR RNA (20 nM) binding, 85 mM NaCl
pKd: −log10 of the molar value.
readout.kind: pKd

1. CC(=O)O.N=C(N)NCCCC(N)C(=O)NCC1OC(OC2C(N)CC(N)C(O)C2O)C(N)C(O)C1O (stereo not shown) [NeamR1, argininamido-neamine conjugate]	< 6.30
2. NC(N)=NCCC[C@H](N)C(=O)NC[C@@H]1OC(O[C@H]2[C@@H](O)[C@H](O[C@@H]3[C@@H](O)[C@H](NC(=O)[C@@H](N)CCCN=C(N)N)C[C@H](NC(=O)[C@@H](N)CCCN=C(N)N)[C@H]3O[C@H]3O[C@H](CNC(=O)[C@@H](N)CCCN=C(N)N)[C@@H](O)[C@H](O)[C@H]3NC(=O)[C@@H](N)CCCN=C(N)N)O[C@@H]2CO)[C@H](NC(=O)[C@@H](N)CCCN=C(N)N)[C@@H](O)[C@@H]1O (stereo partly shown) [NeoR6, Neomycin hexa-arginine conjugate]	8.30
3. CC(=O)O.N=C(N)NCCCC(N)C(=O)NCC1OC(OC2C(CO)OC(OC3C(O)C(N)CC(N)C3OC3OC(CO)C(O)C(O)C3N)C2O)C(N)C(O)C1O (stereo not shown) [ParomR1, argininamido-paramomycin conjugate]	< 6.30
4. CC(=O)O.N=C(N)NCCCC(N)C(=O)NCC1OC(OC2C(CO)OC(OC3C(O)C(N)CC(N)C3OC3OC(CNC(=O)C(N)CCCNC(=N)N)C(O)C(O)C3N)C2O)C(N)C(O)C1O (stereo not shown) [NeoR2, diargininamido-neomycin B conjugate]	< 6.30

----------
biological target: TAR RNA; test: Fluorescence anisotropy: RhdRev binding and AAC competition for TAR RNA; conditions: competition of AACs with RhdRev for TAR RNA binding
IC50 reference
readout.kind: IC50

1. CC(=O)O.N=C(N)NCCCC(N)C(=O)NCC1OC(OC2C(N)CC(N)C(O)C2O)C(N)C(O)C1O (centres unmarked) [NeamR1, argininamido-neamine conjugate]	> 0.5 µM
2. CC(=O)O.N=C(N)NCCCC(N)C(=O)NCC1OC(OC2C(CO)OC(OC3C(O)C(N)CC(N)C3OC3OC(CO)C(O)C(O)C3N)C2O)C(N)C(O)C1O (centres unmarked) [ParomR1, argininamido-paramomycin conjugate]	> 0.5 µM
3. CC(=O)O.N=C(N)NCCCC(N)C(=O)NCC1OC(OC2C(CO)OC(OC3C(O)C(NC(=O)C(N)CCCNC(=N)N)CC(NC(=O)C(N)CCCNC(=N)N)C3OC3OC(CO)C(O)C(O)C3NC(=O)C(N)CCCNC(=N)N)C2O)C(NC(=O)C(N)CCCNC(=N)N)C(O)C1O (centres unmarked) [ParomR5, pentaargininamido-paromomycin conjugate]	0.0343 µM
4. CC(=O)O.N=C(N)NCCCC(N)C(=O)NCC1OC(OC2C(CO)OC(OC3C(O)C(N)CC(N)C3OC3OC(CNC(=O)C(N)CCCNC(=N)N)C(O)C(O)C3N)C2O)C(N)C(O)C1O (centres unmarked) [NeoR2, diargininamido-neomycin B conjugate]	> 0.5 µM
5. NC(N)=NCCC[C@H](N)C(=O)NC[C@@H]1OC(O[C@H]2[C@@H](O)[C@H](O[C@@H]3[C@@H](O)[C@H](NC(=O)[C@@H](N)CCCN=C(N)N)C[C@H](NC(=O)[C@@H](N)CCCN=C(N)N)[C@H]3O[C@H]3O[C@H](CNC(=O)[C@@H](N)CCCN=C(N)N)[C@@H](O)[C@H](O)[C@H]3NC(=O)[C@@H](N)CCCN=C(N)N)O[C@@H]2CO)[C@H](NC(=O)[C@@H](N)CCCN=C(N)N)[C@@H](O)[C@@H]1O (some centres unmarked) [NeoR6, Neomycin hexa-arginine conjugate]	0.0199 µM

----------
Item-by-item account of pIC50
target: RRE IIB RNA; experiment: Fluorescence anisotropy: RhdRev binding and AAC competition for RRE IIB RNA; settings: competition of AACs with RhdRev for RRE IIB RNA binding
pIC50: −log10 of the molar value.
readout.kind: pIC50

1) NC(N)=NCCC[C@H](N)C(=O)NC[C@@H]1OC(O[C@H]2[C@@H](O)[C@H](O[C@@H]3[C@@H](O)[C@H](NC(=O)[C@@H](N)CCCN=C(N)N)C[C@H](NC(=O)[C@@H](N)CCCN=C(N)N)[C@H]3O[C@H]3O[C@H](CNC(=O)[C@@H](N)CCCN=C(N)N)[C@@H](O)[C@H](O)[C@H]3NC(=O)[C@@H](N)CCCN=C(N)N)O[C@@H]2CO)[C@H](NC(=O)[C@@H](N)CCCN=C(N)N)[C@@H](O)[C@@H]1O (stereo partly drawn) [NeoR6, Neomycin hexa-arginine conjugate]	7.14
2) CC(=O)O.N=C(N)NCCCC(N)C(=O)NCC1OC(OC2C(NC(=O)C(N)CCCNC(=N)N)CC(NC(=O)C(N)CCCNC(=N)N)C(O)C2O)C(NC(=O)C(N)CCCNC(=N)N)C(O)C1O (stereo not drawn) [NeamR4, Neamine tetra-arginine conjugate]	6.93
3) CC(=O)O.N=C(N)NCCCC(N)C(=O)NCC1OC(OC2C(CO)OC(OC3C(O)C(N)CC(N)C3OC3OC(CNC(=O)C(N)CCCNC(=N)N)C(O)C(O)C3N)C2O)C(N)C(O)C1O (stereo not drawn) [NeoR2, diargininamido-neomycin B conjugate]	6.68
4) CC(=O)O.N=C(N)NCCCC(N)C(=O)NCC1OC(OC2C(CO)OC(OC3C(O)C(N)CC(N)C3OC3OC(CO)C(O)C(O)C3N)C2O)C(N)C(O)C1O (stereo not drawn) [ParomR1, argininamido-paramomycin conjugate]	6.39
5) CC(=O)O.N=C(N)NCCCC(N)C(=O)NCC1OC(OC2C(CO)OC(OC3C(O)C(NC(=O)C(N)CCCNC(=N)N)CC(NC(=O)C(N)CCCNC(=N)N)C3OC3OC(CO)C(O)C(O)C3NC(=O)C(N)CCCNC(=N)N)C2O)C(NC(=O)C(N)CCCNC(=N)N)C(O)C1O (stereo not drawn) [ParomR5, pentaargininamido-paromomycin conjugate]	6.83
6) CC(=O)O.N=C(N)NCCCC(N)C(=O)NCC1OC(OC2C(N)CC(N)C(O)C2O)C(N)C(O)C1O (stereo not drawn) [NeamR1, argininamido-neamine conjugate]	6.47

----------
molecular target: TAR RNA; assay: Fluorescence anisotropy: RhdRev binding and AAC competition for TAR RNA; settings: competition of AACs with RhdRev for TAR RNA binding
readout.kind: IC50

1) CC(=O)O.N=C(N)NCCCC(N)C(=O)NCC1OC(OC2C(NC(=O)C(N)CCCNC(=N)N)CC(NC(=O)C(N)CCCNC(=N)N)C(O)C2O)C(NC(=O)C(N)CCCNC(=N)N)C(O)C1O (stereo not shown) [NeamR4, Neamine tetra-arginine conjugate]	0.0828 µM

----------
# Lookup of reported reduction of 12G5 mAb binding to the cells keyed by entry
target: CXCR4 (Homo sapiens); construct: endogenous in cells; host or cells: PM1 cells and PBMC; assay: Inhibition of anti-CXCR4 mAb 12G5 binding to cells, flow cytometry; type: cell-based; details: 10 μM AAC, PM1 cells, 30 min at 4° C.
readout.kind: reduction of 12G5 mAb binding to the cells

1) CC(=O)O.N=C(N)NCCCC(N)C(=O)NCC1OC(OC2C(CO)OC(OC3C(O)C(NC(=O)C(N)CCCNC(=N)N)CC(NC(=O)C(N)CCCNC(=N)N)C3OC3OC(CO)C(O)C(O)C3NC(=O)C(N)CCCNC(=N)N)C2O)C(NC(=O)C(N)CCCNC(=N)N)C(O)C1O (stereo not drawn) [ParomR5, pentaargininamido-paromomycin conjugate]	81%
2) CNC(C)C1CCC(NC(=O)C(N)CCCNC(=N)N)C(OC2C(NC(=O)C(N)CCCNC(=N)N)CC(NC(=O)C(N)CCCNC(=N)N)C(OC3OCC(C)(O)C(NC)C3O)C2O)O1 (stereo not drawn) [R3G, tri-arginine gentamycin C1 conjugate, reference compound]	84%
3) CC(=O)O.N=C(N)NCCCC(N)C(=O)NCC1OC(OC2C(N)CC(N)C(O)C2O)C(N)C(O)C1O (stereo not drawn) [NeamR1, argininamido-neamine conjugate]	5%

----------
target: CXCR4 (Homo sapiens, UniProt P61073); construct: endogenous in cells; host or cells: PM1 cells and PBMC; experiment: Inhibition of anti-CXCR4 mAb 12G5 binding to cells, flow cytometry; format: cell-based; conditions: 10 μM AAC, PM1 cells, 30 min at 4° C.
Sequence (P61073 whole entry): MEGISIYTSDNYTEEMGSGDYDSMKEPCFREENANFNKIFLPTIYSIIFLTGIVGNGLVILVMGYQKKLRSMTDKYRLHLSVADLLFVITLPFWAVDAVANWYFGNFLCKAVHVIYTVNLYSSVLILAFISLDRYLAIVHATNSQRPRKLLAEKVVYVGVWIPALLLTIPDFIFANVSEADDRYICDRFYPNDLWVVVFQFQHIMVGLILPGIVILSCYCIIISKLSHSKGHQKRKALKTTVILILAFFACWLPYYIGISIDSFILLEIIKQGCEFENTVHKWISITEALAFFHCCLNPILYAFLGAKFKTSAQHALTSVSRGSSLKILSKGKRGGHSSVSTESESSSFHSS
readout.kind: reduction of 12G5 mAb binding to the cells (%)

1. CC(=O)O.N=C(N)NCCCC(N)C(=O)NCC1OC(OC2C(CO)OC(OC3C(O)C(N)CC(N)C3OC3OC(CO)C(O)C(O)C3N)C2O)C(N)C(O)C1O (stereo not shown) [ParomR1, argininamido-paramomycin conjugate]	16
2. CC(=O)O.N=C(N)NCCCC(N)C(=O)NCC1OC(OC2C(NC(=O)C(N)CCCNC(=N)N)CC(NC(=O)C(N)CCCNC(=N)N)C(O)C2O)C(NC(=O)C(N)CCCNC(=N)N)C(O)C1O (stereo not shown) [NeamR4, Neamine tetra-arginine conjugate]	60
3. CC(=O)O.N=C(N)NCCCC(N)C(=O)NCC1OC(OC2C(CO)OC(OC3C(O)C(N)CC(N)C3OC3OC(CNC(=O)C(N)CCCNC(=N)N)C(O)C(O)C3N)C2O)C(N)C(O)C1O (stereo not shown) [NeoR2, diargininamido-neomycin B conjugate]	48
4. NC(N)=NCCC[C@H](N)C(=O)NC[C@@H]1OC(O[C@H]2[C@@H](O)[C@H](O[C@@H]3[C@@H](O)[C@H](NC(=O)[C@@H](N)CCCN=C(N)N)C[C@H](NC(=O)[C@@H](N)CCCN=C(N)N)[C@H]3O[C@H]3O[C@H](CNC(=O)[C@@H](N)CCCN=C(N)N)[C@@H](O)[C@H](O)[C@H]3NC(=O)[C@@H](N)CCCN=C(N)N)O[C@@H]2CO)[C@H](NC(=O)[C@@H](N)CCCN=C(N)N)[C@@H](O)[C@@H]1O (stereo partly shown) [NeoR6, Neomycin hexa-arginine conjugate]	90
